Molecular target: Melanocortin receptor 3 (Homo sapiens); further: assay procedure not described here
Sequence (P41968 whole entry): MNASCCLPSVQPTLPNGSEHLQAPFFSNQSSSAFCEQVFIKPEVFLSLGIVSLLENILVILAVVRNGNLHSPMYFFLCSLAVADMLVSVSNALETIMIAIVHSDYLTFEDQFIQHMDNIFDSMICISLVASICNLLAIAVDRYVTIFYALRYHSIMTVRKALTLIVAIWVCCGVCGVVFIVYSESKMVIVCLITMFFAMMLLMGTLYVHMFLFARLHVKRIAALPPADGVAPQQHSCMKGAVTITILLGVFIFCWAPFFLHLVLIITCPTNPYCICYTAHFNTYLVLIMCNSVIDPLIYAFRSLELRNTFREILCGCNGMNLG
property: AC50

# count of solved cases: 10
molecule	assayed-target	AC50
Cc1ccc(-c2ncc(Cl)cc2-c2ccc(S(C)(=O)=O)cc2)cn1 [ETORICOXIB]	Melanocortin receptor 3 (Homo sapiens)	> 10 µM
CCN(C(C)=O)c1cccc(-c2ccnc3c(C#N)cnn23)c1 [ZALEPLON]	Melanocortin receptor 3 (Homo sapiens)	> 30 µM
CO/N=C(\C(=O)N[C@@H]1C(=O)N2C(C(=O)O)=C(CSc3nc(C)c(CC(=O)O)s3)CS[C@H]12)c1csc(N)n1 [CEFODIZIME]	Melanocortin receptor 3 (Homo sapiens)	> 30 µM
Cc1nnc2n1-c1ccc(Cl)cc1C(c1ccccc1)=NC2 [ALPRAZOLAM]	Melanocortin receptor 3 (Homo sapiens)	> 30 µM
C[C@H](CS)C(=O)N1CCC[C@H]1C(=O)O [CAPTOPRIL]	Melanocortin receptor 3 (Homo sapiens)	> 30 µM
N[C@@H](Cc1cc(I)c(Oc2cc(I)c(O)c(I)c2)c(I)c1)C(=O)O [LEVOTHYROXINE]	Melanocortin receptor 3 (Homo sapiens)	> 30 µM
COc1ccc(-c2cc(=S)ss2)cc1 [ANETHOLTRITHION]	Melanocortin receptor 3 (Homo sapiens)	18 µM
OCC(O)COc1ccc(Cl)cc1 (stereo not drawn)	Melanocortin receptor 3 (Homo sapiens)	> 10 µM
Nc1nc(Cl)nc2c1ncn2[C@@H]1O[C@H](CO)[C@@H](O)[C@@H]1F [CLOFARABINE]	Melanocortin receptor 3 (Homo sapiens)	> 30 µM
NS(=O)(=O)c1ccc(N2CCCCS2(=O)=O)cc1	Melanocortin receptor 3 (Homo sapiens)	> 30 µM

Lookup: Indicate the recorded AC50 value for this molecule: O=C1CN=C(c2ccccc2Cl)c2cc([N+](=O)[O-])ccc2N1 [CLONAZEPAM]
Found: > 30 µM

Lookup: Note down AC50 recorded for C[C@@H](O)[C@H]1C(=O)N2C(C(=O)O)=C(SCCN=CN)C[C@H]12 [IMIPENEM ANHYDROUS]
Found: > 300 µM

====

These records show AC50 for UniProt O43193.
Sequence (O43193 whole entry): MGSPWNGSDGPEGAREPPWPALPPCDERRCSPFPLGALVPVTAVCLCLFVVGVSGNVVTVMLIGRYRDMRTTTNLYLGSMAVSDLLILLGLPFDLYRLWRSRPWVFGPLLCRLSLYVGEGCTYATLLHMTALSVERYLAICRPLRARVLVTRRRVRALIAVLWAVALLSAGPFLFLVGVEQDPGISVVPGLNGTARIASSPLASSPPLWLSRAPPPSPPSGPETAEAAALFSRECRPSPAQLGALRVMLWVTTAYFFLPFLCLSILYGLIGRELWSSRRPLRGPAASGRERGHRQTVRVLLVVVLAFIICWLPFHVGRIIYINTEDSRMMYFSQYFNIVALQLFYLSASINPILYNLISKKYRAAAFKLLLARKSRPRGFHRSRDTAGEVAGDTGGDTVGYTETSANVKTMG

compound	property	result
CCN(CC)CCCN(c1ccccc1)C1Cc2ccccc2C1 [APRINDINE]	AC50	> 30 µM

Lookup: Supply recorded AC50 for CCN(CC)C(C)C(=O)c1ccccc1 (stereo not given) [DIETHYLPROPION] here.
Found: > 10 µM

Lookup: // fetch AC50 given entry Nc1ccc(S(=O)(=O)Nc2ncccn2)cc1 [SULFADIAZINE]
Found: > 10 µM

Lookup: Output AC50 of O=C(O)CCCC[C@@H]1SC[C@@H]2NC(=O)N[C@@H]21 [BIOTIN]
Found: > 10 µM

Lookup: Recall and state the measured AC50 for CC(C)(CO)c1cc2cc(NC(=O)C3(c4ccc5c(c4)OC(F)(F)O5)CC3)c(F)cc2n1C[C@@H](O)CO [TEZACAFTOR] .
Found: > 30 µM

====

Biological target: Amine oxidase [flavin-containing] A (Homo sapiens, UniProt P21397); further: assay procedure not described here
Sequence (P21397 whole entry): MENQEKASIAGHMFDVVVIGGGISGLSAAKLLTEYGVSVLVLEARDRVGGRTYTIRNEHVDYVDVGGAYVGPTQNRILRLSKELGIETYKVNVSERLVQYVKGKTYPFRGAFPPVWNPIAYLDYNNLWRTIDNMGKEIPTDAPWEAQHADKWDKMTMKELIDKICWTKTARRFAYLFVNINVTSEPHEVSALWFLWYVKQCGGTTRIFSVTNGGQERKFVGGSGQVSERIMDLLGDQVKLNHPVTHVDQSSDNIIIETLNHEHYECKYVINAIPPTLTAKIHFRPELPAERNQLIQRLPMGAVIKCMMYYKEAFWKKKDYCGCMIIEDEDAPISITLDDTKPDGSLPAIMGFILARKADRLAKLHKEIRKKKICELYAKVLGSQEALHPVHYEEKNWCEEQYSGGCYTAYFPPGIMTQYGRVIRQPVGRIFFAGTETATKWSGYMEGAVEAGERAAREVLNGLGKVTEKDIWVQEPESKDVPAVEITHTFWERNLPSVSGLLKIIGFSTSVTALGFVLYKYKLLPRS
Assay type: functional
property: AC50

compound	AC50
Cc1nnc2n1-c1ccc(Cl)cc1C(c1ccccc1)=NC2 [ALPRAZOLAM]	> 10 µM
CCC1(CC)C(=O)NC(=O)N(C)C1=O [METHARBITAL]	> 10 µM
Cc1c(C)c2c(c(C)c1O)CCC(C)(COc1ccc(CC3SC(=O)NC3=O)cc1)O2 (stereo not drawn) [TROGLITAZONE]	> 30 µM
CCN(C(C)=O)c1cccc(-c2ccnc3c(C#N)cnn23)c1 [ZALEPLON]	> 10 µM
CNCCc1ccccn1 [BETAHISTINE]	> 30 µM

Lookup: State its AC50 for this compound: CN(C)[C@@H]1C(O)=C(C(=O)NCN2CCCC2)C(=O)[C@@]2(O)C(O)=C3C(=O)c4c(O)cccc4[C@@](C)(O)[C@H]3C[C@@H]12 [ROLITETRACYCLINE]
Found: > 10 µM

Lookup: Give the reported AC50 for this compound. Cc1ccc(-c2ncc(Cl)cc2-c2ccc(S(C)(=O)=O)cc2)cn1 [ETORICOXIB]
Found: > 10 µM

Lookup: Determine its reported AC50: Nc1cc(N2CCCCC2)nc(N)[n+]1[O-] [MINOXIDIL]
Found: > 10 µM

Lookup: Give the value of AC50 reported for the following: CN1CCC(=C2c3ccccc3CC(=O)c3sccc32)CC1 [KETOTIFEN]
Found: > 10 µM

====

Observed AC50 for UniProt P35462, reported per entry below.
Sequence (P35462 whole entry): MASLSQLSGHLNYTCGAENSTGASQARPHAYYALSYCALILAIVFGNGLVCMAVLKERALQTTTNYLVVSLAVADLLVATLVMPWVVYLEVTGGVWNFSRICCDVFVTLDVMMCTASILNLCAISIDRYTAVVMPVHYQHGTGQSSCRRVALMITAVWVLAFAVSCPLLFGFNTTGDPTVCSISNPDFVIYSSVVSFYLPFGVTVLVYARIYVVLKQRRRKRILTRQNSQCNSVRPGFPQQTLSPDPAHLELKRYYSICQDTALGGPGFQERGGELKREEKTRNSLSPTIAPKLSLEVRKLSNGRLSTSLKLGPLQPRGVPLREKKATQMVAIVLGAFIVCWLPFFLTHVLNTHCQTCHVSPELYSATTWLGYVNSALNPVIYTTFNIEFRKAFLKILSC

compound	property	result
[H]/N=C(/N)NS(=O)(=O)c1ccc(N)cc1	AC50	> 30 µM

Lookup: Indicate the recorded AC50 value for this compound: Cc1ccc2c([nH]c(=O)c3c(=O)cc(C(=O)OCCC(C)C)oc32)c1C
Found: > 30 µM

Lookup: Tell me measured AC50 for C[C@]12CC[C@@H]3c4ccc(OC(=O)N(CCCl)CCCl)cc4CC[C@H]3[C@@H]1CC[C@@H]2OP(=O)(O)O [ESTRAMUSTINE PHOSPHATE] please.
Found: > 30 µM

Lookup: Please indicate AC50 recorded for CN1CCCC(CC2c3ccccc3Sc3ccccc32)C1 (stereo unspecified)
Found: 0.742 µM

Lookup: Identify measured AC50 corresponding to CO[C@H]1/C=C/O[C@@]2(C)Oc3c(C)c(O)c4c(c3C2=O)C2=NC3(CCN(CC(C)C)CC3)NC2=C(NC(=O)/C(C)=C\C=C\[C@H](C)[C@H](O)[C@@H](C)[C@@H](O)[C@@H](C)[C@H](OC(C)=O)[C@@H]1C)C4=O
Found: > 30 µM

Lookup: Specify measured AC50 for Cc1ccc(Cl)c(Nc2ccccc2C(=O)O)c1Cl .
Found: > 30 µM

====

Reported values of AC50 for individual entries
Target sequence: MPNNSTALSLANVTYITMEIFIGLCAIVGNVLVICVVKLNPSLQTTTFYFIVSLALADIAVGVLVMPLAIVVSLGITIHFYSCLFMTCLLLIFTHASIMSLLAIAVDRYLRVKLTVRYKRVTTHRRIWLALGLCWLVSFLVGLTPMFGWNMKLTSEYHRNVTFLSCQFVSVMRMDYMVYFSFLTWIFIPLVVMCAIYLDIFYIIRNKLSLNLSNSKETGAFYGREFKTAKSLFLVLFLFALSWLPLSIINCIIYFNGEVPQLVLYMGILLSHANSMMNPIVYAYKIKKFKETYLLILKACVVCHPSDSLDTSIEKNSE
The reply should contain only the number, in µM.

COc1ccc(-c2cc(=S)ss2)cc1 7.7
CCn1c(=O)c2c(nc(/C=C/c3ccc(OC)c(OC)c3)n2C)n(CC)c1=O 24
Nc1nc(Cl)nc2c1ncn2[C@@H]1O[C@H](CO)[C@@H](O)[C@@H]1F 18.2

Moving on to the next molecule.
Lookup: Determine from records and report AC50 for CCC[C@@]1(CCc2ccccc2)CC(O)=C([C@H](CC)c2cccc(NS(=O)(=O)c3ccc(C(F)(F)F)cn3)c2)C(=O)O1
Found: 6.4

====

Target: Alpha-2A adrenergic receptor (Homo sapiens, UniProt P08913); further: assay procedure not described here
Sequence (P08913 whole entry): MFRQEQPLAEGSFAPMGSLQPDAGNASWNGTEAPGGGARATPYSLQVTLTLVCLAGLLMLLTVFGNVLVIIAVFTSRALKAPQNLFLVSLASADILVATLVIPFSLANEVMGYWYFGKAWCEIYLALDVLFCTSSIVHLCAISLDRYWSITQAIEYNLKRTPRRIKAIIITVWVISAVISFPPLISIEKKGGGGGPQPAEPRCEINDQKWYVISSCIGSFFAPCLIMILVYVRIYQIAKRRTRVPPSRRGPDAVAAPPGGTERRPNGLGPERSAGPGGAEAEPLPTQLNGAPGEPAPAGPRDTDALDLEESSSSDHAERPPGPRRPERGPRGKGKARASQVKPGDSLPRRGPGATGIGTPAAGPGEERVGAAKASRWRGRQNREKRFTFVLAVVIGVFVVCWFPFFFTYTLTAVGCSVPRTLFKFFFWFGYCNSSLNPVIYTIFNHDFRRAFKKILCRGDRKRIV
Type: functional, cell-based
property: AC50

Consider the reported AC50 for these compounds:
O=C1CN=C(c2ccccc2Cl)c2cc([N+](=O)[O-])ccc2N1 > 10 µM
CC(C)(CO)c1cc2cc(NC(=O)C3(c4ccc5c(c4)OC(F)(F)O5)CC3)c(F)cc2n1C[C@@H](O)CO > 30 µM
Nc1cc(N2CCCCC2)nc(N)[n+]1[O-] > 10 µM
CN(C)[C@@H]1C(O)=C(C(=O)NCN2CCCC2)C(=O)[C@@]2(O)C(O)=C3C(=O)c4c(O)cccc4[C@@](C)(O)[C@H]3C[C@@H]12 > 10 µM
CC(=O)NC[C@H]1CN(c2ccc(N3CCOCC3)c(F)c2)C(=O)O1 > 30 µM
Cn1cnc2c(F)c(Nc3ccc(Br)cc3F)c(C(=O)NOCCO)cc21 > 30 µM

Lookup: Provide measured AC50 value, entry: CN1CCC(=C2c3ccccc3CC(=O)c3sccc32)CC1
Found: > 10 µM

====

Target: Amine oxidase [flavin-containing] A (Homo sapiens, UniProt P21397); further: assay procedure not described here
Format: functional
property: AC50

Consider the following illustrative entries.
compound	assayed-target	property	result
CCCO[C@H]1[C@@H]([C@@H](COCc2ccc(Cl)cc2)OCc2ccc(Cl)cc2)OC(OCC)[C@@H]1O (some centres undefined) [CLOBENOSIDE]	Amine oxidase [flavin-containing] A (Homo sapiens, UniProt P21397)	AC50	> 30 µM
CCN(CC)C(C)C(=O)c1ccccc1 (centres undefined) [DIETHYLPROPION]	Amine oxidase [flavin-containing] A (Homo sapiens, UniProt P21397)	AC50	> 10 µM
COc1cc(N)cn[n+]1-c1ccccc1 [AMEZINIUM METILSULFATE]	Amine oxidase [flavin-containing] A (Homo sapiens, UniProt P21397)	AC50	11 µM

Lookup: Tell us which AC50 value is on record for CC(=O)N1CCN(c2ccc(OCC3COC(Cn4ccnc4)(c4ccc(Cl)cc4Cl)O3)cc2)CC1 (centres undefined) [KETOCONAZOLE]
Found: > 10 µM

Lookup: For the compound CC1Cc2ccccc2N1NC(=O)c1ccc(Cl)c(S(N)(=O)=O)c1 (centres undefined) [INDAPAMIDE] , give its reported AC50.
Found: > 10 µM

Lookup: Specify reported AC50 for the compound shown: C[C@H](Cn1cnc2c(N)ncnc21)OCP(=O)(O)O [TENOFOVIR ANHYDROUS]
Found: > 30 µM
